Listed here are binders together with their documented Kd.
Target: T1, recombinant human EphA2 (human, UniProt P29317 25-534)
T1 construct: also called human recombinant EphA2 protein
T1 sequence (P29317 25-534 limits assumed): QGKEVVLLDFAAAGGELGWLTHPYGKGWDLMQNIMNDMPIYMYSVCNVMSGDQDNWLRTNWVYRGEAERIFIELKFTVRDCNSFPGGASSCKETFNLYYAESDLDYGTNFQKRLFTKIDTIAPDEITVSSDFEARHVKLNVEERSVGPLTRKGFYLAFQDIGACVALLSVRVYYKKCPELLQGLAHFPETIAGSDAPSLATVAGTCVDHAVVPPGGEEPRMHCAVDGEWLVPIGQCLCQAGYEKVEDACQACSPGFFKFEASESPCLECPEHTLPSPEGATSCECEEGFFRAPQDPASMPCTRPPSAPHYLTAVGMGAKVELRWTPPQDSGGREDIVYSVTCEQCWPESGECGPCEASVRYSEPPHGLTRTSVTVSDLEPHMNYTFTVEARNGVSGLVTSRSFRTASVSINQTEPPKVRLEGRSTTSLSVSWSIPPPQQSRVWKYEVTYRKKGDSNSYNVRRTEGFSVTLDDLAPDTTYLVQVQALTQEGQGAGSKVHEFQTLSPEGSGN
Assay: flow cytometry of yeast-displayed scFv with human recombinant EphA2, curve fit of normalized MFI (apparent KD)

Some solved entries appear below for comparison.
• RYRgerm_102919_22 scFv (scFv) scFv: EVQLVESGGGLVQPGGSLRLSCAASGFTFSSYSMNWVRQAPGKGLEWVSYISSSSSTIYYADSVKGRFTISRDNAKNSLYLQMNSLRAEDTAVYYCARYRLPNFWSGYPNYGMDVWGQGTTVTVSSGGGGSGGGGSGGGGSQSVLTQPPSVSGAPGQRVTISCTGSSSNIGAGYDVHWYQQLPGTAPKLLIYGNSNRPSGVPDRFSGSKSGTSASLAITGLQAEDEADYYCQSYDSSLSGHVVFGGGTKLTVL = 28.1 nM
• RYRgerm scFv (scFv) EVQLVESGGGLVQPGGSLRLSCAASGFTFSSYSMNWVRQAPGKGLEWVSYISSSSSTIYYADSVKGRFTISRDNAKNSLYLQMNSLRAEDTAVYYCARYRLPDFWSGYPNYGMDVWGQGTTVTVSSGGGGSGGGGSGGGGSQSVLTQPPSVSGAPGQRVTISCTGSSSNIGAGYDVHWYQQLPGTAPKLLIYGNSNRPSGVPDRFSGSKSGTSASLAITGLQAEDEADYYCQSYDSSLSGHVVFGGGTKLTVL = 355 nM
• RYRgerm_102919_14 scFv (scFv, also called RYRgerm_102019_14) scFv: EVQLVESGGGLVQPGGSLRLSCAASGFTSSSYSMNWVRQAPGKGLEWVSYISSSSSTIYYADSVKGRFTISRDNAKNSLYLQMNSLRAEDTAVYYCARYRLPNFWSGYPNYGMDVWGQGTTVTVSSGGGGSGGGGSGGGGSQSVLTQPPSVSGAPGQRVTISCTGSSSNIGAGYDVHWYQQLPGTAPKLLIYGNSNRPSGVPDRFSGSKSGTSASLAITGLQAEDEADYYCQSYDSSLSGHVVFGGGTKLTVL = 21.3 nM
• RYRgerm_102919_15 scFv (scFv) scFv: EVQLVESGGGLVQPGGSLRLSCAASGFTFSSYSMNWVRQAPGKGLEWVSYISSSSSTIYYADSVKGRFTISRDNAKNSLYLQMNSLRAEDTAVYYCARYRLPNFWSGYPNYGTDVWGQGTTVTVSSGGGGSGGGGSGGGGSQSVLTQPPSVSGAPGQRVTISCTGSSSNIGAGYDVHWYQQLPGTAPKLLIYGNSNRPSGVPDRFSGSKSGTSASLAITGLQAEDEADYYCQSYDSSLSGHVVFGGGTKLTVL = 5.58 nM

Look at this binder and give its reported Kd. RYRgerm_102919_33 scFv (scFv) scFv: EVQLVESGGGLVQPGGSLRLSCAASGFTFSSYSMNWVRQAPGKGLEWVSYISSSSSTIYYADSVKGRFTISRDNAKNSLYLQMNSLRAEDTAVYYCARYRFPDFWSGYPNYGMDVWGQGTTVTVSSGGGGSGGGGSGGGGSQSVLTQPPSVSGAPGQRVTISCTGSSSNIGAGYDVHWYQQLPGTAPKLLIYGNSNRPSGVPDRFSGSKSGTSASLAITGLQAEDEADYYCQSYDSSLSGHVVFGGGTKLTVL
42.5 nM
